List of self-cleavage kobs at 40 uM GlcN6P values.
B1: glmS ribozyme (parent)
chain: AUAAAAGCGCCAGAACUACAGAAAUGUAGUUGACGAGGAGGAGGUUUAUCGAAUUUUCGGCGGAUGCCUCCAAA

- Variants of: B1
- PROCEDURE_DETAILS: self-cleavage kobs at 40 uM GlcN6P; higher = faster cleavage; RNA array
- MEASUREMENT_CONTEXT: with glucosamine-6-phosphate
Variants at the floor of the assay were thinned out.

Answered cases to consult:
{"MUTATION_LIST": "A52C C71G", "RESULT": "< 1e-05 s⁻¹"}
{"MUTATION_LIST": "C16U G32U A48C G59C", "RESULT": "< 1e-05 s⁻¹"}
{"MUTATION_LIST": "G41C C58A", "RESULT": "< 1e-05 s⁻¹"}
{"MUTATION_LIST": "G51C U57G", "RESULT": "< 1e-05 s⁻¹"}
{"MUTATION_LIST": "C11A C34U G63C", "RESULT": "< 1e-05 s⁻¹"}

## Task Which measured self-cleavage kobs at 40 uM GlcN6P value corresponds to C50A G51C ?
## Result < 1e-05 s⁻¹

## Task Quick one: A6U C16U G32C A42U U57G
## Result < 1e-05 s⁻¹

## Task Param item: U31C G32A G60U
## Result < 1e-05 s⁻¹

## Task And for A52C G62U ?
## Result < 1e-05 s⁻¹

## Task Same read-out for A53C U57C ?
## Result < 1e-05 s⁻¹

## Task Also need A52G G62C , thanks.
## Result < 1e-05 s⁻¹

## Task Next variant up: A39G U56C
## Result 0.000109 s⁻¹

## Task Also, U54G U65G C67G please.
## Result 3.01e-05 s⁻¹

## Task Thanks! And U47C G66C C67U ?
## Result < 1e-05 s⁻¹

## Task # repeat for G38A G59C
## Result < 1e-05 s⁻¹

## Task Follow-up item: G40U C71G
## Result 0.000211 s⁻¹

## Task Please answer likewise for A6U A48G G51C G59C
## Result < 1e-05 s⁻¹
